- target-or-system: Fyn (UniProt P06241)
- Sequence (P06241 whole entry, looked up): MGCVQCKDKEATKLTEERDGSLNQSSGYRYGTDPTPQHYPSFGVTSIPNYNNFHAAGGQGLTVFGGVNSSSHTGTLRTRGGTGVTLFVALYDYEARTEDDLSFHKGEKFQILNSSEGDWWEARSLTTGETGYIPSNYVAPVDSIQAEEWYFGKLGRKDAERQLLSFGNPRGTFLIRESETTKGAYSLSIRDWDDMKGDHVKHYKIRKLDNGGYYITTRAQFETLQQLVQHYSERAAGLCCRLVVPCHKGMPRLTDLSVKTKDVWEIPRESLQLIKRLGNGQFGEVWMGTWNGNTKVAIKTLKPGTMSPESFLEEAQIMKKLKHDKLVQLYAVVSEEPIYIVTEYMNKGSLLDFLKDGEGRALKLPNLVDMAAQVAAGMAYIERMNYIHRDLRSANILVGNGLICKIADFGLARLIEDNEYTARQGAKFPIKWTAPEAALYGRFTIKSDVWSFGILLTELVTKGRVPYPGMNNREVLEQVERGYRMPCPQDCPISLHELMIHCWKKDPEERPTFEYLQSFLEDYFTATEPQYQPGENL
- experiment-summary: phosphorylation enrichment, bacterial display (enrichment ratio); higher = better substrate or ligand; peptides without Tyr show the background;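 also: 11-residue human phosphosite peptides and single-mutation variants displayed on the E. coli surface, counted by deep sequencing, each peptide's frequency after selection divided by its frequency in the unselected input library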;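 also: frequency after pTyr selection over input frequency; kinase dosed for 20-30% of maximal phosphorylation in three min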
readout-label: phosphorylation enrichment
# output: bare number, no unit

KLLPEYPGILS [DHFR2_Y163_V166I]    0.436
PGVNYYFRVSA    0.466
FSEVRYVKEPF [HIPK4_Y170_YF]    0.513

Request: Indicate the recorded phosphorylation enrichment value for this sequence: WFPANYVKLLN [ITSN1_Y1132_S1137N]
Response: 0.53

Request: Indicate the recorded phosphorylation enrichment value for this sequence: MEIHAYRKLLE [LMNA_Y376]
Response: 0.429

Request: Indicate the recorded phosphorylation enrichment value for this sequence: TSLAQYDSNSK [BMX_Y216]
Response: 0.344

Request: Indicate the recorded phosphorylation enrichment value for this sequence: RLLRGHDQSAF [HLA-C_Y137_Y137H_YF]
Response: 0.501

Request: Indicate the recorded phosphorylation enrichment value for this sequence: IVRSPYEDLED [VHL_Y185_L184P]
Response: 0.506

Request: Indicate the recorded phosphorylation enrichment value for this sequence: GRQWNYVASMS [KLHL4_Y552]
Response: 0.419

Request: Indicate the recorded phosphorylation enrichment value for this sequence: SKKSTYQALLD [GANC_Y43]
Response: 0.447

Request: Indicate the recorded phosphorylation enrichment value for this sequence: GLALRYLSDHS [VWF_Y1584]
Response: 0.465

Request: Indicate the recorded phosphorylation enrichment value for this sequence: RSDSSYRMSAT [NHS_Y1532]
Response: 0.747

----------
// reported phosphorylation enrichment for each item listed
- target-or-system: Fyn (UniProt P06241)
- experiment-summary: phosphorylation enrichment, bacterial display (enrichment ratio); higher = better substrate or ligand; peptides without Tyr show the background

Example entries begin here.
SGDINYGQFAQ [PLCG1_Y210_T209N]    0.554
PAVGIYNGNIN [CDCP1_Y707_D709G]    1.49
CTTIHYNDMCN [TP53_Y234_Y236D]    0.422
LSALDYKIFYY [WDPCP_Y210]    0.511
QDGFSYLSRQM [LDLR_Y847_P848L_YF]    0.772

Request: Indicate the recorded phosphorylation enrichment value for this sequence: GFIISYREEEQ
Response: 0.488

Request: Indicate the recorded phosphorylation enrichment value for this sequence: PLKYLYPNIDK [STAT1_Y668]
Response: 0.564

Request: Indicate the recorded phosphorylation enrichment value for this sequence: NSNAAYEQSHF [LRIF1_Y714]
Response: 0.504

Request: Indicate the recorded phosphorylation enrichment value for this sequence: MEKEKYVSFIS [JMJD1C_Y596_YF]
Response: 0.348

Request: Indicate the recorded phosphorylation enrichment value for this sequence: LGRTVYADCLA [ABCA4_Y2063_L2060R]
Response: 0.902

Request: Indicate the recorded phosphorylation enrichment value for this sequence: LTMAPYSSVSL [FAM81A_Y24]
Response: 0.536

Request: Indicate the recorded phosphorylation enrichment value for this sequence: KVALLYKPYFY [POLE_Y100_P99L]
Response: 0.457

----------
- Tested on: AncSZ
- experiment-summary: phosphorylation enrichment, bacterial display (enrichment ratio); higher = better substrate or ligand; peptides without Tyr show the background
// reported phosphorylation enrichment for each item listed
# output: bare number, no unit

TPRNTYKMTSV [MKI67_Y849_L854V]    0.657
VTPSEYLEIVR [TMEM130_Y412_E407V]    0.969
PVADRYDQSFE [MAPK14_Y323_P322R]    0.867

Request: Indicate the recorded phosphorylation enrichment value for this sequence: QTLTDYDTRFY [CSNK2A3_Y131_I133T]
Response: 1.01

Request: Indicate the recorded phosphorylation enrichment value for this sequence: KIPGRYYETGS [PAX2_Y72_L69P]
Response: 0.56

Request: Indicate the recorded phosphorylation enrichment value for this sequence: FRKNTYNVKST [SYNE2_Y575_I574T_YF]
Response: 0.466

Request: Indicate the recorded phosphorylation enrichment value for this sequence: ISKKIYDPIHD [CTNNA3_Y614_T616P]
Response: 0.57

Request: Indicate the recorded phosphorylation enrichment value for this sequence: SVMAEYGLYAA [VSX2_Y219_G223A]
Response: 0.997

Request: Indicate the recorded phosphorylation enrichment value for this sequence: NDENIYKGLPD [VAV3_Y141_D139N]
Response: 1.34

Request: Indicate the recorded phosphorylation enrichment value for this sequence: QQLQGYIPSNY [FRK_Y99]
Response: 0.623

Request: Indicate the recorded phosphorylation enrichment value for this sequence: PLQSEYSSITT [ITGB4_Y1760]
Response: 1.89

Request: Indicate the recorded phosphorylation enrichment value for this sequence: SVVVPYDPPEV [TP53_Y220_E221D]
Response: 1.02

Request: Indicate the recorded phosphorylation enrichment value for this sequence: VHSGTYQVTVC [MYBPC3_Y1043_R1048C]
Response: 1.03

Request: Indicate the recorded phosphorylation enrichment value for this sequence: PLKFLYPNIDK [STAT1_Y668_YF]
Response: 1.26

Request: Indicate the recorded phosphorylation enrichment value for this sequence: PFVFFYSFLLK [PTEN_Y178_R173P_YF]
Response: 1.99
